System: DENV-R2A (Rluc-expressing DENV, serotype 2 strain 16681)
Run description: microbe, parasite or virus in culture
Assay type: cell-based, Dengue virus
Condition details: Dengue virus, Huh7.5, 48 h, read-out: DENV-R2A replication (fold DMSO) Mean, deconvolution screen, singletons, 50 µM, Huh7.5, 2 days postinfection
Exercise: for every item that follows, state its recorded activity at 50 µM.
Write down the value, and be sure its unit follows.

Recorded activity at 50 µM, per entry:
Cc1ccc(Br)c(N)c1 102%
Cc1ccnn1-c1ccccc1 104%
Cc1ccc(N2CCNC2=O)c(C)c1 99%

Please give activity at 50 µM, item by item, for the list that follows.
1. Nc1ccccc1N1CCCCC1
2. CC1CCN(Cc2ccc(Cl)nc2)CC1
3. Cc1cnn2c(C3CC3)ccnc12
4. CC(=O)Nc1cc(C)ccc1F
5. CN1CCN(c2ccccc2CN)CC1
6. Cc1cc(O)cc(C)c1CO
7. Nc1cnccc1Cl

1: 111%; 2: 89%; 3: 108%; 4: 103%; 5: 60%; 6: 96%; 7: 102%

Please give activity at 50 µM, item by item, for the list that follows.
1. Cn1cc(Br)c2c(N)ncnc21
2. O=C(c1ccccc1)C1(O)CCCCC1
3. N#CCC(=O)Nc1ccccc1

1: 51%; 2: 96%; 3: 96%
